# Lookup of reported pEC50 keyed by entry
Tested system: Isoform 2 of Nuclear receptor ROR-alpha (Alpha-2) (Homo sapiens)
Sequence (P35398 as listed by the source): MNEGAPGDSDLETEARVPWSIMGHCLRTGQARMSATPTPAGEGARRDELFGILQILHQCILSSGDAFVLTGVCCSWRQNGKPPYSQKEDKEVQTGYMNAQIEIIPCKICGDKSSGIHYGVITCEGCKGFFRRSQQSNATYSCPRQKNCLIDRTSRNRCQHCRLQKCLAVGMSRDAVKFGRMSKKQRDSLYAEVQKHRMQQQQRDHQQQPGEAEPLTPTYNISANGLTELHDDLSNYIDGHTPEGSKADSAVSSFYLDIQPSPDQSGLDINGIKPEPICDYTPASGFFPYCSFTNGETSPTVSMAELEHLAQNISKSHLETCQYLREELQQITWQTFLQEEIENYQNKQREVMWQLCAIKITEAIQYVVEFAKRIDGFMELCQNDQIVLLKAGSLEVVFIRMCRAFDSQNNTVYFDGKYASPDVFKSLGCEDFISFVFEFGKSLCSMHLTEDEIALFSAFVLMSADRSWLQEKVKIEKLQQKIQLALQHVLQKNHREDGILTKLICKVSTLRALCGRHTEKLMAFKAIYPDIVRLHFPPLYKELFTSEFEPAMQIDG
Test details: activators of RORA ligand-binding domain fusion – cell-based, CHO-K1, Gal4-RORA LBD, luciferase luminescence, counter-screen for SF-1 activator project, dose response (AID 675)
pEC50 (log units): -log10 of the concentration in mol/L.

CC(C)(C)c1cc(NC(=O)C2CCCO2)no1 (stereo not given) [MLS000065845] = 5.60
Clc1ccc(-n2ncc3c(NCc4ccccn4)ncnc32)cc1 = 5.64
O=C(Nc1nnc(C2CCCCC2)s1)c1ccco1 [MLS000039439] = 6.22

### Prompt May I ask what pEC50 has been recorded for CS(=O)(=O)c1ccc2nc(NC(=O)C3COc4ccccc4O3)sc2c1 (stereo not given) [MLS000056123] ?
### Response 5.14
